TARGET OR SYSTEM: BttxB (Clostridium botulinum)
Sequence (P10844 2-441 limits assumed): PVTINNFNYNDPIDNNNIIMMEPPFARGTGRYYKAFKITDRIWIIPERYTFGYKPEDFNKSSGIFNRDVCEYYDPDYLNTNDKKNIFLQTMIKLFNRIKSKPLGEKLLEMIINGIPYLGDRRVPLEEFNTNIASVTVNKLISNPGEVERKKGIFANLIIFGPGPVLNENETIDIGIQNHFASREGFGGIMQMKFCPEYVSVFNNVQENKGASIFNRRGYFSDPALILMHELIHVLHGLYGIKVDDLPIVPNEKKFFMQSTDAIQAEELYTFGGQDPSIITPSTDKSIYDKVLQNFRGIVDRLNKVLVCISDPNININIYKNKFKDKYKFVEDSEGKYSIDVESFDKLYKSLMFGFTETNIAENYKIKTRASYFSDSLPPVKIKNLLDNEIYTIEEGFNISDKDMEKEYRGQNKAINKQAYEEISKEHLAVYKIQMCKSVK
ASSAY METHOD TEXT: biochemical
pIC50: −log10 of the molar value. Ends that are not written are not given here.
READOUT KIND: pIC50

INSERT INTO measurements (primary_sequence, observed) VALUES
  ('TRSRAKGLQFPGLLVHRLLRKGNY [Peptide 05P]', '> 3.70');
